- Assay text: qHTS for Inhibitors of Inflammasome Signaling: IL-1-beta AlphaLISA Primary Screen; note: % is set by controls: 0 for no effect and ±100 for the full control effect
- Details: THP-1 LPS/ATP IL-1B secretion, 16 h; at 57.5 µM, stronger effect = lower value
The campaign covered roughly 360,000 compounds. About 17,000 (4.7%) were called active. Roughly 5% stayed inconclusive and do not appear here. The full list was thinned out, with actives kept by preference.
Readout name: activity change (%)

1) CCOC(=O)N1CCN(CCC(=O)Nc2ccccc2)CC1; -4.73
2) Cc1ccc(F)c(S(=O)(=O)NC(=O)C2(C)CCN2C(=O)CCc2cccs2)c1 (stereo not given); 0.428
3) CCOc1ccc2nc(C(=O)N3CCCC(C)C3)sc2c1 (stereo not given); -10.2
4) CS(=O)(=O)N1CCc2nc(-c3ccccc3)sc2C1; 54.3
5) Cc1cc(NC(=O)CCN2CCN(Cc3ccccc3)CC2)ccc1Br; -54
6) CC(=O)NS(=O)(=O)c1ccc(N/C(N)=N/c2nc(C)cc(C)n2)cc1; 34.9
7) COc1ccc(CCn2c(=N)c(C(=O)NCC3CCCO3)cc3c(=O)n4cccc(C)c4nc32)cc1OC (stereo not given); -11.6
8) CCOc1cc(/C=C2\C(=N)N3N=C(C)SC3=NC2=O)ccc1OCCOc1ccccc1; 4.36
9) COc1ccc(CCn2c(=N)c(C(=O)NCc3ccco3)cc3c(=O)n4cccc(C)c4nc32)cc1; -53.7
10) O=C(O)CC12CC3CC(C1)CC(n1ncc(NCc4ccc(F)cc4)c(Cl)c1=O)(C3)C2; -16

###

- Assay text: qHTS for Inhibitors of Inflammasome Signaling: IL-1-beta AlphaLISA Primary Screen
- Details: THP-1 LPS/ATP IL-1B secretion, 16 h; at 57.5 µM, stronger effect = lower value
The whole screen tested about 360,000 compounds, of which about 17,000 (4.7%) were called active. Not shown: some 5% with an inconclusive outcome. What follows is part of a selection rich in actives, with near analogues and random picks from the rest.
Readout name: activity change (%)

1. S=c1[nH]nc(/C=C/c2ccccc2)o1; -8.62
2. O=C(CN1CCCCCC1)Nc1ccc(S(=O)(=O)N2CCCCC2)cc1; -59.2
3. COc1ccc(NC(=O)CN2C(=O)CSc3ccc(S(=O)(=O)N4CCC(C)CC4)cc32)cc1; -67.1
4. Cc1c(NC(=O)COC(=O)/C=C/c2cccc(F)c2)c(=O)n(-c2ccccc2)n1C; -1.18
5. Cc1cc(C)cc(OCC(=O)NCc2cc(C)nc3ccccc23)c1; 14.8
6. COc1ccc(NC(=O)c2sc(=O)n(Cc3ccc(S(=O)(=O)N(C)C)cc3)c2C)cc1; 6.5
7. O=C(CSCc1ccc(Br)cc1)Nc1ccc(S(=O)(=O)N2CCCCCC2)cc1; 23.8
8. O=C(CSc1nc2nccnc2c(=O)n1Cc1cccs1)Nc1ccccc1F; 2.93
9. CC1(C(=O)Nc2cccnc2)Cc2c(-c3ccccc3)ccnc2O1 (stereo not given); -18
10. Cc1cc(C)c(NC(=O)c2oc3ccccc3c2COc2ccccc2)c(C)c1; -17.8

###

- Assay text: qHTS for Inhibitors of Inflammasome Signaling: IL-1-beta AlphaLISA Primary Screen
- Details: THP-1 LPS/ATP IL-1B secretion, 16 h; at 57.5 µM
The campaign covered roughly 360,000 compounds. About 17,000 (4.7%) were called active. About 5% were inconclusive and are not listed. Rule as the data show it: active = activity change below about -50%; inconclusive = mostly about -30% to -49%; inactive = weaker than that. What follows is part of a selection rich in actives, with near analogues and random picks from the rest.
Outcomes: active, inactive

1. CC1CCN(c2nc3c(c(=O)[nH]c(=O)n3C)n2CCCc2ccccc2)CC1; inactive
2. CC1(C)CC(N2CCN(C(c3ccccc3)c3ccccc3)CC2)=CC(=[N+]2CCCCC2)C1; active
3. C=CCC[C@@H](Cc1ccc(F)cc1)C(=O)O[C@H](CNC(=O)[C@H](CC=C)CC(=O)N(CCO)Cc1ccccc1)c1ccccc1; active
4. CC1CCN(C2=NC(=O)/C(=C/c3cn[nH]c3-c3ccccc3)S2)CC1; active
5. COCCN(C(=O)C(C)N1C(=O)c2ccccc2C1=O)c1c(N)n(CC(C)C)c(=O)[nH]c1=O (centres undefined); inactive
6. COC(=O)c1ccc2c(=O)n(CCN3CCOCC3)c(SCC(=O)Nc3cccc(OC)c3)nc2c1; inactive
7. Clc1cc(NC2CCCCC2)ncn1; inactive
8. COc1ccc(NC(=S)NCC2CCN(c3ccc(OC)cc3)C2)cc1 (centres undefined); active
9. C=CCC[C@@H](Cc1ccc(F)cc1)C(=O)OC[C@@H](C)NC(=O)[C@H](CC=C)CC(=O)N(CCO)Cc1ccccc1; inactive
10. COc1ccc(OCC(=O)Nc2ccc(N3CCC(C)CC3)cc2)cc1; inactive
11. C=CCC[C@H](Cc1ccc(F)cc1)C(=O)OC[C@@H](NC(=O)[C@@H](CC=C)CC(=O)N[C@H](CO)Cc1ccccc1)C(C)(C)C; inactive
12. CCN1CCC(O)(/C=C/c2ccc(C)cc2)C(C(=O)/C=C/c2ccc(C)cc2)C1 (centres undefined); inactive
13. COc1ccc(N2CCC(N3CCN(C)C(CCO)C3)CC2)cc1 (centres undefined); inactive
14. c1ccc(C(c2ccccc2)N2CCN(Cc3nnnn3C3CCCCC3)CC2)cc1; inactive
15. CC(=O)Nc1cc(-c2ccccc2F)cn2c(-c3cccc(C(F)(F)F)c3)cnc12; inactive
16. C=CC[C@@H](Cc1ccc(F)cc1)C(=O)OC[C@H]1CCCN1C(=O)[C@H](CC=C)CC(=O)N(CCO)Cc1ccccc1; inactive
17. O=C1N=C(N2CCOCC2)S/C1=C\C=C/c1ccccc1; inactive
18. O=C(NCCS(=O)(=O)N1CCN(c2ccccc2)CC1)c1cc(=O)c2ccccc2o1; inactive
19. COc1ccc(N2CCC(CNC(=S)Nc3c(C)cccc3C)C2)cc1 (centres undefined); active
